experiment: Equilibrium solubility of the compound in phosphate buffer after 24 hrs at pH 7.4; assay type: physicochemical
A collection of compounds and their measured solubility thermodynamic at 24 h

// solved cases for solubility thermodynamic at 24 h follow
{"columns": ["smiles", "measured.metric", "result"],
 "data": [
  ["COc1cccc(/C=C2\\SC(=O)NC2=O)c1N1CCC[C@@H](N)C1", "solubility thermodynamic at 24 h", "> 1000 µM"],
  ["N[C@@H]1CCCN(c2c(Br)cccc2/C=C2\\SC(=O)NC2=O)C1", "solubility thermodynamic at 24 h", "> 720 µM"]
]}

Next up:
State the recorded solubility thermodynamic at 24 h for this entry: "CCOc1cccc(/C=C2\SC(=O)NC2=O)c1N1CCC[C@@H](N)C1"
> 1000 µM

###

assay: in vitro; conditions: rat, liver microsomes
measured.metric: microsomal CLint at 2 µM

// solved cases for microsomal CLint at 2 µM follow
{"columns": ["smiles", "result"],
 "data": [
  ["N[C@@H]1CCCN(c2c(Br)cccc2/C=C2\\SC(=O)NC2=O)C1", "< 4.8 µL/min/mg"],
  ["N[C@@H]1CCCN(c2c(/C=C3\\SC(=O)NC3=O)cccc2-c2ccccc2)C1", "< 4.8 µL/min/mg"]
]}

Next up:
State the recorded microsomal CLint at 2 µM for this entry: "CC(C)Oc1cccc(/C=C2\SC(=O)NC2=O)c1N1CCC[C@@H](N)C1"
< 4.8 µL/min/mg

###

A collection of compounds and their measured pIC50
target: Serine/threonine-protein kinase pim-2 (Homo sapiens); test: Inhibition of human PIM2 using FITC-(AHX)RSRHSSYPAGT-COOH as substrate after 90 mins by mobility shift assay in presence of 50 uM ATP
Sequence (Q9P1W9 whole entry): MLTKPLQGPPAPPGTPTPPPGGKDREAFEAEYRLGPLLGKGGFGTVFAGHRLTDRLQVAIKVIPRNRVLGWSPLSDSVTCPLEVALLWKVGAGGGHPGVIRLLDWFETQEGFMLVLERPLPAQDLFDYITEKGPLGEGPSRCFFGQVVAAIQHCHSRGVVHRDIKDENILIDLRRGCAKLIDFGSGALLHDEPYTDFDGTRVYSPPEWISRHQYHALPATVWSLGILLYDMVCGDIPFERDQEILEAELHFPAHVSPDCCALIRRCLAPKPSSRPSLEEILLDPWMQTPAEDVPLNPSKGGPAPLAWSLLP
pIC50: −log10 of the molar value.

{"columns": ["smiles", "pIC50"],
 "data": [
  ["N[C@@H]1CCCN(c2c(Br)cccc2/C=C2\\SC(=O)NC2=O)C1", "> 8.52"]
]}

State the recorded pIC50 for this entry: "CC(C)Oc1cccc(/C=C2\SC(=O)NC2=O)c1N1CCC[C@@H](N)C1"
> 8.52

State the recorded pIC50 for this entry: "CCOc1cccc(/C=C2\SC(=O)NC2=O)c1N1CCC[C@@H](N)C1"
> 8.40
